Kindly supply the reported residual activity values for the records listed here.
Target: CSK (human) (UniProt P41240)
Sequence (P41240 whole entry, looked up): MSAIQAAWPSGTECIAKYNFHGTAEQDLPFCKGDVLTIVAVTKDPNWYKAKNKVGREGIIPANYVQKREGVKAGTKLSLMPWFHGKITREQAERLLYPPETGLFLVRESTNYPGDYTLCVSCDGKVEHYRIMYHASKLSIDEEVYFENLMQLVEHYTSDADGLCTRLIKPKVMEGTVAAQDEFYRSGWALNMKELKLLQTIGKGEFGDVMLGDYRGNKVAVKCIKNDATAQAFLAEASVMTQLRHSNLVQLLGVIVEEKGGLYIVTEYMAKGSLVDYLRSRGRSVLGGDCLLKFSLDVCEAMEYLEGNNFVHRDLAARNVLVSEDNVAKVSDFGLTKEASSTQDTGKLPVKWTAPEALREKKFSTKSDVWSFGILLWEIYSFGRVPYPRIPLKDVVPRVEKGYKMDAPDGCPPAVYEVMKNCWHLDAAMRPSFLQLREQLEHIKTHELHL
Experiment: radiometric filter-binding kinase assay, Kinase HotSpot
Settings: compound 0.5 µM; ATP 10 µM
Answers are plain numbers, in %.

Examples from the recorded data:
smiles_notation=COc1cccc(-c2cc(=O)c3ccccc3o2)c1N obs_value=83.7
smiles_notation=Cn1cc(/C=C2\C(=O)Nc3ccc(S(N)(=O)=O)cc32)c2ccccc21 obs_value=89.3
smiles_notation=N#CCCc1ccc2c(c1)-c1[nH]c3ccc([N+](=O)[O-])cc3c1CC(=O)N2 obs_value=96.3
smiles_notation=CCCCc1c(-c2ccc(O)cc2)[nH]c2nccnc12 obs_value=78.2

Dear colleague, could you please provide residual activity for the molecules listed below?
1. COc1cc2ncnc(Nc3ccc(O)c(Br)c3)c2cc1OC
2. COc1cc2c(cc1OC)-c1[nH]nc(Nc3cccc(F)c3)c1C2

Result block:
1. 91.6
2. 44.9
